experimental_system: AmpC from Escherichia coli (AmpCEC) (Escherichia coli)
Construct: made in house
Sequence (P00811 20-377): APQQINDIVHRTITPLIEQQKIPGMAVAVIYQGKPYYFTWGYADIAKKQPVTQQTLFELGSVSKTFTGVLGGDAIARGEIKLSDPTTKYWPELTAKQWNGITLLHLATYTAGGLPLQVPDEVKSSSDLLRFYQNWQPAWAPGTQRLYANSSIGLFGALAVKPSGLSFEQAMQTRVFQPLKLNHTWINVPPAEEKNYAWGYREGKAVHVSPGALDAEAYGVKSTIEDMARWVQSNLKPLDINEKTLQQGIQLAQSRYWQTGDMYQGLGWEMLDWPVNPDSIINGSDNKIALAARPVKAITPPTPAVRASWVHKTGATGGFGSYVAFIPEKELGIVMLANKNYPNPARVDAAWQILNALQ
procedure_text: IC50/pIC50 determination with fluorescent reporter substrate FC-5 after pre-incubation
Type: biochemical
measurement_parameters: pIC50, AmpCEC, pH 7.5, pH 7.5; 360 min pre-incubation; Table S2
readout_label: pIC50
Numbers only, as −log10 of the molar value.

Enquiry: Dear colleague, I am looking for the recorded pIC50 of the following compound: `CC1(C)[C@H](C(=O)O)N2C(=O)C[C@H]2S1(=O)=O`
Return: 5.38

* * *

experimental_system: OXA-10 (Pseudomonas aeruginosa, UniProt P14489)
Construct: His tag (N); made in house
Sequence (P14489 20-266): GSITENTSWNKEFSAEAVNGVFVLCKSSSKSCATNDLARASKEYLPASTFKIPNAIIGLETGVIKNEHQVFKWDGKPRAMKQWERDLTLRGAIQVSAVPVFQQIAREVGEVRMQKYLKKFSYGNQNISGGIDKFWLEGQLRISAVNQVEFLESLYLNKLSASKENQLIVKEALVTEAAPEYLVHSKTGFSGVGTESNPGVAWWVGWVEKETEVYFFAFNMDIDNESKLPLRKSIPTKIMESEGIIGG
procedure_text: IC50/pIC50 determination with fluorescent reporter substrate FC-5 after pre-incubation
Format: biochemical
measurement_parameters: pIC50 at pH 7.5, OXA-10, without added NaHCO3; 30 min pre-incubation; Table S1
readout_label: pIC50
One number for each entry, as −log10 of the molar value.

Enquiry: Dear colleague, I am looking for the recorded pIC50 of the following molecule: CC1(C)[C@H](C(=O)O)N2C(=O)C[C@H]2S1(=O)=O [sulbactam]
Return: 4.05

* * *

experimental_system: AmpC from Escherichia coli (AmpCEC) (Escherichia coli)
Construct: made in house
procedure_text: IC50/pIC50 determination with fluorescent reporter substrate FC-5 after pre-incubation
Format: biochemical
measurement_parameters: pIC50 at pH 7.5, AmpCEC, 30 min pre-incubation; Table S1
readout_label: pIC50
Answers are plain numbers, as −log10 of the molar value.

Enquiry: Any idea what pIC50 came out for CC1(C)[C@H](C(=O)O)N2C(=O)C[C@H]2S1(=O)=O [sulbactam] on AmpC from Escherichia coli (AmpCEC) (Escherichia coli)?
Return: 4.44

* * *

experimental_system: AmpCEC (Escherichia coli, UniProt P00811)
readout_label: pKi
Numbers only, as −log10 of the molar value.

Enquiry: Dear colleague, I am looking for the recorded pKi of the following compound: `CC1(C)[C@H](C(=O)O)N2C(=O)C[C@H]2S1(=O)=O`
Return: 2.80

* * *

experimental_system: AmpC from Escherichia coli (AmpCEC) (Escherichia coli)
Construct: made in house
procedure_text: IC50/pIC50 determination with fluorescent reporter substrate FC-5 after pre-incubation
Format: biochemical
measurement_parameters: pIC50, AmpCEC, pH 7.0, pH 7.0; 0 min pre-incubation; Table S2
readout_label: IC50 (µM)
One number for each entry, in µM.

Enquiry: Dear colleague, I am looking for the recorded IC50 of the following molecule: `CC1(C)[C@H](C(=O)O)N2C(=O)C[C@H]2S1(=O)=O`
Return: 447

* * *

experimental_system: AmpC from Escherichia coli (AmpCEC) (Escherichia coli)
Construct: made in house
procedure_text: IC50/pIC50 determination with fluorescent reporter substrate FC-5 after pre-incubation
Format: biochemical
measurement_parameters: pIC50, AmpCEC, pH 7.0, pH 7.0; 30 min pre-incubation; Table S2
readout_label: pIC50
Answers are plain numbers, as −log10 of the molar value.

Enquiry: Dear colleague, I am looking for the recorded pIC50 of the following compound: `CC1(C)[C@H](C(=O)O)N2C(=O)C[C@H]2S1(=O)=O`
Return: 4.16

* * *

experimental_system: OXA-10 (Pseudomonas aeruginosa)
Construct: His tag (N); made in house
procedure_text: IC50/pIC50 determination with fluorescent reporter substrate FC-5 after pre-incubation
Type: biochemical
measurement_parameters: pIC50 at pH 7.5, OXA-10, without added NaHCO3; 10 min pre-incubation; Table S1
readout_label: pIC50
Answers are plain numbers, as −log10 of the molar value.

Enquiry: Any idea what pIC50 came out for `CC1(C)[C@H](C(=O)O)N2C(=O)C[C@H]2S1(=O)=O` on OXA-10 (Pseudomonas aeruginosa)?
Return: 4.06
